Target system: UniProt:G5EFZ1
Sequence (G5EFZ1 whole entry): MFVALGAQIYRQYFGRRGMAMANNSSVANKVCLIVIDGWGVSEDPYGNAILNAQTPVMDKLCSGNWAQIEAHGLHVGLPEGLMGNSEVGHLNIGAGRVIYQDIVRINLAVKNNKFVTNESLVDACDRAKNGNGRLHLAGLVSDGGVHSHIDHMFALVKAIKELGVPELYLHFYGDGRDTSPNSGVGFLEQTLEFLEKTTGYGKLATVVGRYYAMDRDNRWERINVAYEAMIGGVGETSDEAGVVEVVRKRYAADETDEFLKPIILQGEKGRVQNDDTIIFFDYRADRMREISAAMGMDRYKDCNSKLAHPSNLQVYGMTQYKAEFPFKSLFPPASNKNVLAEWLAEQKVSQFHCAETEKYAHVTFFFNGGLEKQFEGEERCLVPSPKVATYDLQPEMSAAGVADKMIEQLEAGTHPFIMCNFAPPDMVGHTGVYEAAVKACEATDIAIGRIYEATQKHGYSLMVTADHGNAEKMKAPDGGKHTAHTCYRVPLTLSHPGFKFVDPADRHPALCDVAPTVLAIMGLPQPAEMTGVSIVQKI
Method notes: PGM enzyme-coupled bioluminescent end point assay (Kinase-Glo Plus)
Format: biochemical
Setup conditions: pIC50 C. elegans iPGM
pIC50: −log10 of the molar value. Non-standard residues stand in square brackets, D forms with d. Residues, ends and D or L forms follow the SMILES beside them.
Measurement name: pIC50

molecule="CC(=O)N[C@H](Cc1ccc(O)cc1)C(=O)N[C@@H](CC(=O)O)C(=O)N[C@@H](Cc1ccc(O)cc1)C(=O)N1CCC[C@H]1C(=O)NCC(=O)N[C@@H](CC(=O)O)C(=O)N[C@@H](Cc1ccc(O)cc1)C(=O)N[C@@H](CO)C(=O)N[C@@H](Cc1ccc(O)cc1)C(=O)N[C@@H](CC(C)C)C(=O)N[C@@H](Cc1ccc(O)cc1)C(=O)NCC(=O)N[C@H](C(=O)N[C@@H](CS)C(=O)NCC(N)=O)[C@@H](C)O [Ce-L2] (Ac-[dY]DYPGDYSYLYGTCG-NH2)" measurement_name=pIC50 recorded_value=5.94
